The following compounds are shown together with reported normalized growth values.
- Measurement notes: chemical genetic growth profiling, strain panel (AID 1159580);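 further: tested at 20 µM; growth read once vehicle control cultures reached saturation at 30 °C; 1 = growth at the plate median or of vehicle wells; lower values mean less growth of the strain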
- Run parameters: S. cerevisiae deletion strains, growth OD, locus YBR171W, strain sec66, active compounds read low
Among all 5,500 compounds or so, about 2,000 (36%) were called active. Roughly 18% stayed inconclusive and do not appear here. Some of the results follow.
Number, no unit, nothing else.

Look over these answered cases.
1. CC(C)=CCc1c(O)cc2oc(C)cc(=O)c2c1O    0.973
2. O=C(O)C1CC([C@@H]2CCCCN2)CN2CCCCC12 (stereo not given in full)    0.974
3. CC(=O)O[C@H]1C(=O)[C@@]2(C)C([C@H](OC(=O)c3ccccc3)[C@]3(O)C[C@H](OC(=O)[C@H](O)[C@@H](NC(=O)c4ccccc4)c4ccccc4)C(C)=C1C3(C)C)[C@]1(OC(C)=O)CO[C@@H]1C[C@@H]2O (stereo not given in full)    0.991
4. COc1ccc2c(c1)C1(C)CCC(=O)CC1CC2 (stereo not given)    1.01

Would you kindly look at the next entry?
Query string: Form field: reported normalized growth of CC(C)[C@H](N)C(=O)OCCOCn1cnc2c(=O)[nH]c(N)nc21
Result string: 1.01
